- Test system: pathological sputum of bronchitic rabbits
- TEST PROTOCOL: Mucus regulating properties in bronchitic rabbits (sputum AUC as % compared to bronchitic controls)
- Type: in vivo, male New Zealand white rabbits
- CONDITIONS USED: Table 2; oral, equimolecular amounts to S-carboxymethyl cysteine
RESULT TYPE: Sialic acid (mg/ml), AUC as a 100% compared to bronchitic controls (%)
Note: unit % is implicit; provide only the numeric part.

>  <MOLECULE>
CCOC(=O)[C@@H]1CSC(COc2ccccc2OC)N1C(=O)CSC(C)=O (stereo partly drawn)

>  <RESULT VALUE>
78

$$$$
>  <MOLECULE>
CC(=O)SCC(=O)N1CCSC1COc1ccccc1O (stereo not drawn)

>  <RESULT VALUE>
49.5

$$$$

We next turn to a different molecule, shown below.
Log: pathological sputum of bronchitic rabbits, molecule COc1ccccc1OCC1SCCN1C(=O)C1CC1 (stereo not drawn) , Sialic acid (mg/ml), AUC as a 100% compared to bronchitic controls = 60

---

- Tested on: cough induced by citric acid aerosol in guinea pigs
- TEST PROTOCOL: Guinea pig cough test (citric acid aerosol, Charlier procedure)
- Assay type: in vivo
- CONDITIONS USED: Cavia porcellus, inhaled or nasal, antitussive test not given
RESULT TYPE: ED50

>  <MOLECULE>
C=CCOc1ccccc1OCC1SCCN1C(=O)CN (stereo not drawn)

>  <ED50>
3 to 30 mg/kg

$$$$

ED50 in this record for C#CCOc1ccccc1OCC1SCCN1C(=O)CCNCCNCCO (stereo not drawn) : 3 to 6 mg/kg

ED50 in this record for COc1ccccc1OCC1SCCN1C(=O)CN (stereo not drawn) : 3 to 30 mg/kg
